target: T1, hIgG1-Fc (human, UniProt P01857-1 100-330 = IgG part, limits assumed); test: SPR, Biacore 3000, 25 C, Langmuir 1:1 model
T1 construct: domain: Fc; treated as the same molecule; also called IgG1 Fc region; hIgG-Fc
Measure: pKd
Would you please state pKd, meaning minus log10 of the concentration in mol/L, as a bare number?

Look over these answered cases.
- Binder: "CID213333 (designed binder) ADNKFSQSANLLAEAKKLNDAQGGITEEQRNGFIQSLKDDAKTNPGNNKEQQNAFYEILHLPK"
  pKd: 7.37
- Binder: "CID213197 (designed binder) ADNKFSQSANLLAEAKKLNDAQGGLTEEQRNGFIQSLKDDTAANPTANKEQQNAFYEILHLPK"
  pKd: 7.08
- Binder: "CID213246 (designed binder) ADNKFSQSANLLAEAKKLNDAQGGLTEEQRNGFIQSLKDDVRRVGSNKEQQNAFYEILHLPK"
  pKd: 6.61
- Binder: "CID213215 (designed binder) ADNKFSQSANLLAEAKKLNDAQGGLTEEQRNGFIQSLKDDVRKLGPNKEQQNAFYEILHLPK"
  pKd: 6.72
- Binder: "CID213191 (designed binder) ADNKFSQSANLLAEAKKLNDAQGGLTEEQRNGFIQSLKDDGTEGVHNKEQQNAFYEILHLPK"
  pKd: 6.88
- Binder: "CID210259 (designed binder) ADNKFSQSANLLAEAKKLNDAQGGITEEQRNGFIQSLKDDAKRNPMTNKEQQNAFYEILHLPK"
  pKd: 6.29
- Binder: "CID213278 (designed binder) ADNKFSQSANLLAEAKKLNDAQGGLTEEQRNGFIQSLKDDMNVGKHNKEQQNAFYEILHLPK"
  pKd: 6.70
- Binder: "CID213235 (designed binder) ADNKFSQSANLLAEAKKLSDAQRGLTEEQRNGFIQSLKDDTKRHPKMNKEQQNAFYEILHLPK"
  pKd: 6.59
- Binder: "CID213224 (designed binder) ADNKFSQSANLLAEAKKLNDAQNGLTEEQRNGFIQSLKDDVRTNGANKEQQNAFYEILHLPK"
  pKd: 6.66

# input for lookup
# get_value(readout='pKd', item= CID210279 (designed binder) ADNKFSQSANLLAEAKKLNDAQGGLTEEQRNGFIQSLKDDTHPEDRQHNKEQQNAFYEILHLPK )
6.99
